Where do the numbers come from? From patent US20240376121A1.

Entries and their measured DC50 follow.
assayed.target: HiBit-BRM fusion protein (Homo sapiens)
Construct: expressed in transfected cells
assay: HiBiT-BRM cell-based degradation assay (Nano-Glo HiBiT Lytic Detection)
test.conditions: stable HeLa cell line expressing HiBiT-BRM, 24 h incubation; read-out: BRM HiBit Degradation IC50

# annotated cases, reported DC50 shown
smiles.code	assayed.target	DC50
Cc1ncsc1-c1ccc([C@H](C)NC(=O)[C@@H]2C[C@@H](O)CN2C(=O)[C@@H](c2cc(OCCN3C[C@H]4C[C@@H](C3)[C@@H]4c3cc4cc(-c5ccccc5O)nnc4s3)no2)C(C)C)cc1	HiBit-BRM fusion protein (Homo sapiens)	≥ 0.01 µM
Cc1ncsc1-c1ccc(CNC(=O)[C@@H]2C[C@@H](O)CN2C(=O)[C@@H](NC(=O)CCCCC(=O)N2CC(c3cc4cc(-c5ccccc5O)nnc4s3)C2)C(C)(C)C)cc1	HiBit-BRM fusion protein (Homo sapiens)	≥ 1 µM
Cc1ncsc1-c1ccc([C@H](C)NC(=O)[C@@H]2C[C@@H](O)CN2C(=O)[C@H](c2cc(N3CCC(CN4CC(c5cc6cc(-c7ccccc7O)nnc6s5)C4)CC3)no2)C(C)C)cc1	HiBit-BRM fusion protein (Homo sapiens)	≥ 1 µM
Cc1ncsc1-c1ccc(CNC(=O)[C@@H]2C[C@@H](O)CN2C(=O)[C@@H](NC(=O)C2(F)CC2)C(C)(C)C)c(OCC(=O)N2CCC(c3sc4nnc(-c5ccccc5O)cc4c3C)CC2)c1	HiBit-BRM fusion protein (Homo sapiens)	≥ 1 µM
Cc1ncsc1-c1ccc([C@H](C)NC(=O)[C@@H]2C[C@@H](O)CN2C(=O)[C@@H](c2cc(OCCN3CCC(c4sc5nnc(-c6ccccc6O)cc5c4C)CC3)no2)C(C)C)cc1	HiBit-BRM fusion protein (Homo sapiens)	< 0.01 µM

Kindly consider the entry below.
Req: Supply DC50 value. Item: "Cc1ncsc1-c1ccc([C@H](C)NC(=O)[C@@H]2C[C@@H](O)CN2C(=O)[C@@H](c2cc(O[C@H]3C[C@H](N4CCC(c5sc6nnc(-c7ccccc7O)cc6c5C)CC4)C3)no2)C(C)C)cc1"
Resp: ≥ 1 µM

====

assayed.target: HiBit-BRM fusion protein (Homo sapiens, UniProt P51531)
Construct: expressed in transfected cells
Sequence (P51531 whole entry, the tested form may be a part): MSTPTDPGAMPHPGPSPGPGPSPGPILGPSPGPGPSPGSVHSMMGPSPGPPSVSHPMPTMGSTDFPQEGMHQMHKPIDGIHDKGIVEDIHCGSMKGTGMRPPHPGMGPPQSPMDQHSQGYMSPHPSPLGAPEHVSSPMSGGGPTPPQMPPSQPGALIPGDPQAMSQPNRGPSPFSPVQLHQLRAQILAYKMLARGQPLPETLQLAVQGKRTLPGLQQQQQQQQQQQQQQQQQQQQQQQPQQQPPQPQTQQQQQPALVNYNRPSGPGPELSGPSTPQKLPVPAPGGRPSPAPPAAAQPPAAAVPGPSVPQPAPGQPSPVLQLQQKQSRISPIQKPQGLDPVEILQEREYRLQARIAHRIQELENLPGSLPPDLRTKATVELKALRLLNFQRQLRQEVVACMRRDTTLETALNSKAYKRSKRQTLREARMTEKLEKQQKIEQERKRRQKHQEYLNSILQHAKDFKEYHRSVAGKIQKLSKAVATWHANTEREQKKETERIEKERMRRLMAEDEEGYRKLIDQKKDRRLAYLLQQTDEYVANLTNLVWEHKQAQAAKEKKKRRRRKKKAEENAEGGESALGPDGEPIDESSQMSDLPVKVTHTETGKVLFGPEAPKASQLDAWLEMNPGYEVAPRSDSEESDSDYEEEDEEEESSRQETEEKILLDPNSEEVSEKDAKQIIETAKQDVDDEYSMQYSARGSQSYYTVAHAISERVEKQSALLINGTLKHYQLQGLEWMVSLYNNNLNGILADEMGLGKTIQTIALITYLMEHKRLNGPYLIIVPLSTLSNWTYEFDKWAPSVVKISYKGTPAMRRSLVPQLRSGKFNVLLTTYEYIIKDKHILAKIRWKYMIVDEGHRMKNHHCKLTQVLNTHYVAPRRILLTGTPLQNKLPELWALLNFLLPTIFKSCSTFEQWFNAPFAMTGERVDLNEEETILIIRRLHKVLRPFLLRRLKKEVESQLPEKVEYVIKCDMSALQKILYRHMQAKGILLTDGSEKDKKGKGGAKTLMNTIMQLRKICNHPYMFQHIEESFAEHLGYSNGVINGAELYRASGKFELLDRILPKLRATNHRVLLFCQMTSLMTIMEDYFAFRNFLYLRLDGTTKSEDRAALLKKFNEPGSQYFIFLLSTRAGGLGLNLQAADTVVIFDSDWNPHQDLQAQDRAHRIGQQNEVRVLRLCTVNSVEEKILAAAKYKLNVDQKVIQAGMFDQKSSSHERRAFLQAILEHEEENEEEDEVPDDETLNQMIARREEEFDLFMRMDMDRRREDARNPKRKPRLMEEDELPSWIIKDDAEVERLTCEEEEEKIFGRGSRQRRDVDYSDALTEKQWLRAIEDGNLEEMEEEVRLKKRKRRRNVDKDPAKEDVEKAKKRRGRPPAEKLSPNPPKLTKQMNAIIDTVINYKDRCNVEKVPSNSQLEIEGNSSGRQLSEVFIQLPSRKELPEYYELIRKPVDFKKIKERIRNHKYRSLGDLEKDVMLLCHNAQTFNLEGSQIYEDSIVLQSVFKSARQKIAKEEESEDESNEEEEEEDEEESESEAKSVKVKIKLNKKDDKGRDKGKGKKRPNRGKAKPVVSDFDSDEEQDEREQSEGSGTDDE
assay: HiBiT-BRM cell-based degradation assay (Nano-Glo HiBiT Lytic Detection)
test.conditions: stable HeLa cell line expressing HiBiT-BRM, 24 h incubation; read-out: BRM HiBit Degradation IC50
Measured DC50 values are reported for all entries that follow.

Some compounds with known DC50 results, for comparison:
compound	meas.value
Cc1ncsc1-c1ccc([C@H](C)NC(=O)[C@@H]2C[C@@H](O)CN2C(=O)[C@@H](c2cc(C3CCN(C(=O)[C@H]4CCc5sc6nnc(-c7ccccc7O)cc6c5C4)CC3)no2)C(C)C)cc1 [Compound 47]	≥ 100 nM
Cc1ncsc1-c1ccc([C@H](C)NC(=O)[C@@H]2C[C@@H](O)CN2C(=O)[C@@H](NC(=O)[C@H]2CC[C@@H](c3sc4nnc(-c5ccccc5O)cc4c3C)CC2)C(C)(C)C)cc1 [Compound 50]	≥ 1000 nM
Cc1ncsc1-c1ccc([C@H](C)NC(=O)[C@@H]2C[C@@H](O)CN2C(=O)[C@@H](c2cc(N3CCC(N4CC(c5sc6nnc(-c7ccccc7O)cc6c5C)C4)CC3)no2)C(C)C)cc1 [Compound 113]	< 10 nM

Req: Please supply the value of reported DC50 for the item Cc1ncsc1-c1ccc([C@H](C)NC(=O)[C@@H]2C[C@@H](O)CN2C(=O)[C@@H](c2cc(N3CCC(N4CC(c5cc6nnc(-c7ccccc7O)cc6s5)C4)CC3)no2)C(C)C)cc1 [Compound 105]
Resp: < 10 nM

Req: Determine from records and report DC50 for Cc1ncsc1-c1ccc(CNC(=O)[C@@H]2C[C@@H](O)CN2C(=O)[C@@H](NC(=O)C2(F)CC2)C(C)(C)C)c(OCCN2CCC(c3cc4nnc(-c5ccccc5O)cc4s3)CC2)c1 [Compound 77]
Resp: ≥ 1000 nM

====

assayed.target: HiBit-BRG1 fusion protein (Homo sapiens, UniProt P51532)
Construct: expressed in transfected cells
Sequence (P51532 whole entry, the tested form may be a part): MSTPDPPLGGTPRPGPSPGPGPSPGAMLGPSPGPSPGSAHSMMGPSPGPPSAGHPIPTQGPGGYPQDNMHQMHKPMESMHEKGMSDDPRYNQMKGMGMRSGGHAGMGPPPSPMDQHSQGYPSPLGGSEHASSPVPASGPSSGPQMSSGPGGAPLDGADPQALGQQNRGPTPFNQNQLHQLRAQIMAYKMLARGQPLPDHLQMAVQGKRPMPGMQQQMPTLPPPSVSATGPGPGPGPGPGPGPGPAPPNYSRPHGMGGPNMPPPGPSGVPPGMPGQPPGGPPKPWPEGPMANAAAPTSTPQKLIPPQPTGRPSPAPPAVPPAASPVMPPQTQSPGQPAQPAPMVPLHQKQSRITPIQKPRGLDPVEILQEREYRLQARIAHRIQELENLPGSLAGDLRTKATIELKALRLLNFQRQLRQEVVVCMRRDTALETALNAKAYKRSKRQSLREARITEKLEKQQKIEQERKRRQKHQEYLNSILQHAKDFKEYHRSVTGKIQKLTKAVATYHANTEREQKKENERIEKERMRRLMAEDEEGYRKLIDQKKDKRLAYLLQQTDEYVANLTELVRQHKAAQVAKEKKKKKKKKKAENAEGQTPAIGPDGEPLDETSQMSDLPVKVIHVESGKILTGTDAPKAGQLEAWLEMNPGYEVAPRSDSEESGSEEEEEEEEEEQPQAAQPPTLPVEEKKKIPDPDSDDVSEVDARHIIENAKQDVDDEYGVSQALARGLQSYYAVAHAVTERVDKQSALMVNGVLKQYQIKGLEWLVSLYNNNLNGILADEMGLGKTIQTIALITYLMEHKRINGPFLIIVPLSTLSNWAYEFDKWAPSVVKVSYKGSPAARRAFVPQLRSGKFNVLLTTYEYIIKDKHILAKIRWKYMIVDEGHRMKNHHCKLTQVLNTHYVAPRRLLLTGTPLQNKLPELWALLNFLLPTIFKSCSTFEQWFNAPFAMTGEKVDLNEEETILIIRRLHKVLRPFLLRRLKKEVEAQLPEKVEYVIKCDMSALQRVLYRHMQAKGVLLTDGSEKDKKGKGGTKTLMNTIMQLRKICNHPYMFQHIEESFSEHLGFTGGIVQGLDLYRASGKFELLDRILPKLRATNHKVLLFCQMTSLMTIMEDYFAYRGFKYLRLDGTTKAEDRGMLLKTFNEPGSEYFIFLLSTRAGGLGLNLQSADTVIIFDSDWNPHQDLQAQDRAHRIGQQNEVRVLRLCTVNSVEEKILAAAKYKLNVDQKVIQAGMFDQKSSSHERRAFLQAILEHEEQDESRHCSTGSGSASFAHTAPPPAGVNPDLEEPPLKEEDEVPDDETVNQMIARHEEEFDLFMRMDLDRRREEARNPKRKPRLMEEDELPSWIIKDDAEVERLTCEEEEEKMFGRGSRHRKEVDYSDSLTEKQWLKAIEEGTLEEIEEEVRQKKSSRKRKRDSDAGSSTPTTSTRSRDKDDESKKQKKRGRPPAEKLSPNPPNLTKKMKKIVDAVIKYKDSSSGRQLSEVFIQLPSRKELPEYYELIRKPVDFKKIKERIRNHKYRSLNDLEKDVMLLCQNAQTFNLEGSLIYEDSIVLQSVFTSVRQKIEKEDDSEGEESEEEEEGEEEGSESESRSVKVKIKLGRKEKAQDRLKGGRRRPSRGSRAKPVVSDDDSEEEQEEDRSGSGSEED
assay: HiBiT-BRG1 cell-based degradation assay (Nano-Glo HiBiT Lytic Detection)
test.conditions: stable HeLa cell line expressing HiBit-BRG1 and LgBit, 24 h incubation; read-out: BRMG1 HiBit Degradation IC50
Reported DC50 values follow for various compounds

Below: 5 compounds and their reported DC50.
compound	DC50
Cc1ncsc1-c1ccc([C@H](C)NC(=O)[C@@H]2C[C@@H](O)CN2C(=O)[C@@H](c2cc(OCCN3CCC(O)(c4sc5nnc(-c6ccccc6O)cc5c4C)CC3)no2)C(C)C)cc1 [Compound 54]	≥ 1000 nM
Cc1ncsc1-c1ccc([C@H](C)NC(=O)[C@@H]2C[C@@H](O)CN2C(=O)[C@@H](c2cc(C34CC(CN5CCC(c6sc7nnc(-c8ccccc8O)cc7c6C)CC5)(C3)C4)no2)C(C)C)cc1 [Compound 72]	≥ 10 nM
Cc1ncsc1-c1ccc(CNC(=O)[C@@H]2C[C@@H](O)CN2C(=O)[C@@H](NC(=O)CCCC(=O)N2CC(c3sc4nnc(-c5ccccc5O)cc4c3C)C2)C(C)(C)C)cc1 [Compound 19]	≥ 1000 nM
Cc1ncsc1-c1ccc([C@H](C)NC(=O)[C@@H]2C[C@@H](O)CN2C(=O)[C@@H](c2cc(N3CCC(CN4CC(c5sc6nnc(-c7ccccc7O)cc6c5C)C4)CC3)no2)C(C)C)cc1 [Compound 108]	≥ 1000 nM
Cc1ncsc1-c1ccc([C@H](C)NC(=O)[C@@H]2C[C@@H](O)CN2C(=O)[C@@H](c2cc(OCCN3CCC(c4sc5nnc(-c6ccccc6O)cc5c4F)CC3)no2)C(C)C)cc1 [Compound 68]	≥ 1000 nM

Req: Tell me measured DC50 for Cc1ncsc1-c1ccc([C@H](C)NC(=O)[C@@H]2C[C@@H](O)CN2C(=O)[C@@H](c2cc(N(C)CCN3CC(c4cc5nnc(-c6ccccc6O)cc5s4)C3)no2)C(C)C)cc1 [Compound 112] please.
Resp: ≥ 1000 nM

====

The following molecules are listed with their measured DC50 values.
assayed.target: HiBit-BRM fusion protein (Homo sapiens, UniProt P51531)
Construct: expressed in transfected cells
assay: HiBiT-BRM cell-based degradation assay (Nano-Glo HiBiT Lytic Detection)
test.conditions: stable HeLa cell line expressing HiBiT-BRM, 24 h incubation; read-out: BRM HiBit Degradation IC50
Description: Procedure: A stable HeLa cell line expressing HiBiT-BRM was generated. On day 0, 5000 cells were seeded in 40 μL of media into each well of 384-well cell culture plates. […] The plates were shaken for 10 minutes at room temperature and the bioluminescence read using an EnVision plate reader (PerkinElmer). The degradation % was calculated using the following formula: % degradation=100%−100%×(LumSample−LumLC)/(LumHC−LumLC). […]

smiles.code	DC50
Cc1ncsc1-c1ccc([C@H](C)NC(=O)[C@@H]2C[C@@H](O)CN2C(=O)[C@@H](c2cc(N3CCC(CN4CC(c5cc6nnc(-c7ccccc7O)cc6s5)C4)CC3)no2)C(C)C)cc1	≥ 10 nM

Req: Answer with reported DC50 of "Cc1ncsc1-c1ccc(CNC(=O)[C@@H]2C[C@@H](O)CN2C(=O)[C@@H](NC(=O)CCCC(=O)N2CCC(c3cc4nnc(-c5ccccc5O)cc4s3)CC2)C(C)(C)C)cc1"
Resp: ≥ 100 nM

Req: Input "Cc1ncsc1-c1ccc(CNC(=O)[C@@H]2C[C@@H](O)CN2C(=O)[C@@H](NC(=O)CCCC(=O)N2CC(c3sc4nnc(-c5ccccc5O)cc4c3C)C2)C(C)(C)C)cc1" , output reported DC50.
Resp: ≥ 1000 nM

Req: Name the recorded DC50 of the item "Cc1ncsc1-c1ccc([C@H](C)NC(=O)[C@@H]2C[C@@H](O)CN2C(=O)[C@@H](c2cc(N(C)CCN3CC(c4cc5nnc(-c6ccccc6O)cc5s4)C3)no2)C(C)C)cc1" in your answer.
Resp: ≥ 100 nM

Req: Quick one: give measured DC50 for "Cc1ncsc1-c1ccc([C@H](C)NC(=O)[C@@H]2C[C@@H](O)CN2C(=O)[C@@H](c2cc(OCCN3CCC(O)(c4cc5nnc(-c6ccccc6O)cc5s4)CC3)no2)C(C)C)cc1"
Resp: ≥ 10 nM

Req: Consider the molecule "Cc1ncsc1-c1ccc([C@H](C)NC(=O)[C@@H]2C[C@@H](O)CN2C(=O)[C@@H](NC(=O)[C@H]2CC[C@H](c3sc4nnc(-c5ccccc5O)cc4c3C)CC2)C(C)(C)C)cc1" and give its recorded DC50.
Resp: ≥ 1000 nM

Req: Indicate the recorded DC50 value for this molecule: "Cc1ncsc1-c1ccc(CNC(=O)[C@@H]2C[C@@H](O)CN2C(=O)[C@@H](NC(=O)[C@H]2CC[C@H](c3cnc(N4CCC(c5sc6nnc(-c7ccccc7O)cc6c5C)CC4)nc3)CC2)C(C)(C)C)cc1"
Resp: ≥ 10 nM

Req: Supply measured DC50 of "Cc1ncsc1-c1ccc(CNC(=O)[C@@H]2C[C@@H](O)CN2C(=O)[C@@H](NC(=O)[C@H]2CC[C@@H](c3cnc(N4CCC(c5sc6nnc(-c7ccccc7O)cc6c5C)CC4)nc3)CC2)C(C)(C)C)cc1" in your reply.
Resp: ≥ 1000 nM
